# experimentalContext: in isopropanol, 303.35 K
measurementKind: solubility (mole fraction)
API doc: respond with a numeric literal and nothing else, no unit.

Req: Suppose we examine the compound O=C(O)[C@@H]1Cc2ccccc2N1 ; what solubility (mole fraction) value has been reported?
Resp: 0.00387

----------
# experimentalContext: in n-butanol, 303.55 K
measurementKind: solubility (mole fraction)
Answer with the value's number alone.

Req: Look up solubility (mole fraction): O=C(O)[C@@H]1Cc2ccccc2N1
Resp: 0.00592

----------
# experimentalContext: in n-propanol, 353.15 K
measurementKind: solubility (mole fraction)
Response field accepts a number only; no unit should be typed.

Req: GET /values?readout=solubility (mole fraction)&item= O=C(O)[C@@H]1Cc2ccccc2N1
Resp: 0.0304
